B1: library; a variant is named by its letters at X, in order (parent)
chain: MNIQIGELAKRTACPVVTIRFYEQEGLLPPPGRSRGNFRLYGEEHVERLQFIRHCRSLDMPLSXVRTLLSYRKRPDQDCGEVXMLLDEHXRQVESRIGALLELXHXLVELREACSGARPAQSCGILQGLSDCVCDTRGTTAHXSD

Variants of: B1
Test: sfGFP reporter fluorescence (15 h) (µM FITC); higher = higher leak
Conditions: library round: Round 3b; ligand: none
Entries annotated with measured sfGFP reporter fluorescence

Below, 5 variants whose answers are already recorded.
variantspec=KNATAR recordedresult=0.0517
variantspec=KIITAP recordedresult=0.0473
variantspec=DFITET recordedresult=0.0393
variantspec=KIATEP recordedresult=0.0672
variantspec=KIAKHT recordedresult=0.0693

(Q) Please look up its sfGFP reporter fluorescence: `DFAKAT`
(A) 0.0421

(Q) Please look up its sfGFP reporter fluorescence: `DNATET`
(A) 0.0419

(Q) Please look up its sfGFP reporter fluorescence: `KFATHR`
(A) 0.0517

(Q) Please look up its sfGFP reporter fluorescence: `DNAVAR`
(A) 0.0458
